Assay: Oral bioavailability in male Sprague-Dawley rats
Type: in vivo, Sprague-Dawley (CD) rat
Details: rat, plasma, free acid, Amorph., PO (soln) 1 mg/kg, DMSO:Tween-80:5% Mannitol (20:0.1:79.9), n = 1, read-out: Mean Exposures of 40 AUC0-∞
measured-endpoint: AUC(0-inf)

- given-smiles: "Cc1cc(S(N)(=O)=O)ccc1NC(=O)COc1ccc(Cl)cc1C(=O)c1cc(Cl)cc(C#N)c1"
  measured-endpoint: "AUC(0-inf)"
  recorded-measurement: "128 ng·h/mL"

* * *

Experiment: Solubility
Type: physicochemical
Details: water, thermodynamic from solid, water; Amorphous; read-out: Solubility
Where a name gives a salt, the structure may show the parent alone.
measured-endpoint: solubility

- molecule: "CCC(=O)NS(=O)(=O)c1ccc(NC(=O)COc2ccc(Cl)cc2C(=O)c2cc(Cl)cc(C#N)c2)c(C)c1 [Compound 34, Sodium Salt]"
  recorded-measurement: "> 100 mg/mL"
